- ASSAYED_TARGET: mineralocorticoid receptor (MR) (Homo sapiens, UniProt P08235)
- Sequence (P08235 726-964 limits assumed, species assumed): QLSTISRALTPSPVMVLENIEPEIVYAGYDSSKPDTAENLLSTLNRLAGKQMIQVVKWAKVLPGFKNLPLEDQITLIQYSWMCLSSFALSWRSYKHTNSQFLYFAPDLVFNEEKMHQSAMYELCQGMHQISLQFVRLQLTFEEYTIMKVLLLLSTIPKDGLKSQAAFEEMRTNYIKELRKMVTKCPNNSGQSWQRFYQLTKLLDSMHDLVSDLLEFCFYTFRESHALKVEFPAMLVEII
- PROTOCOL_TEXT: Cell-based Gal4 response element-controlled luciferase reporter assay (MR antagonism)
- EXPERIMENTAL_CONTEXT: Huh7 human liver cells transfected with Gal4 DBD-MR LBD fusion and luciferase reporter; block of agonist-induced activation; overnight incubation
ENDPOINT: IC50 (nM)

• O=C(O)c1ccc2c(c1)CCC1C2=NN(c2ccc3c(c2)CCNC3=O)C1c1ccc(F)cc1 (racemic) = 535
• N#Cc1ccc(N2N=C3c4ccc(C(=O)O)cc4CCC3C2c2ccc(F)cc2)cc1 (racemic) = 553
• N#Cc1ccc(N2N=C3c4ccc(CC(=O)O)cc4OCC3C2c2ccc(F)cc2)cc1 (racemic) = 6920
• Cc1cc(N2N=C3c4ccc(O)cc4CCC3C2c2ccc(F)cc2)ccc1C#N (stereo not shown) = 49
• N#Cc1ccc(N2N=C3c4ccc(C(=O)NCCCC(=O)O)cc4CC[C@@H]3[C@@H]2c2ccc(F)cc2)cc1Cl (racemic) = 312
• CS(=O)(=O)CCNC(=O)c1ccc2c(c1)CCC1C2=NN(c2ccc(C#N)c(Cl)c2)C1c1ccc(F)cc1 (racemic) [Example 96] = 12

---

- ASSAYED_TARGET: mineralocorticoid receptor (MR) (Homo sapiens)
- Construct: expressed in transfected cells; host or cells: Huh7 (human liver cells)
- PROTOCOL_TEXT: Cell-based Gal4 response element-controlled luciferase reporter assay (MR antagonism)
- EXPERIMENTAL_CONTEXT: Huh7 human liver cells transfected with Gal4 DBD-MR LBD fusion and luciferase reporter; block of agonist-induced activation; overnight incubation
Structures can show the parent of a compound that is named as a salt.
ENDPOINT: IC50

- C[S+]([O-])CCNC(=O)c1ccc2c(c1)CC[C@@H]1C2=NN(c2ccc(C#N)c(Cl)c2)[C@H]1c1ccc(F)cc1 (mixture of isomers): 13 nM
- Cc1cc(N2N=C3c4ccc(C(=O)O)cc4OC[C@H]3[C@H]2C2CCCC2)ccc1C#N (single isomer, unassigned): > 1000 nM
- N#Cc1ccc(N2N=C3c4ccc(C(=O)NCC(=O)NCC(=O)O)cc4CC[C@@H]3[C@@H]2c2ccc(F)cc2)cc1Cl (racemic): > 1000 nM
- N#Cc1ccc(N2N=C3c4ccc(C(=O)O)cc4OCC3C2C2CC2)cc1Cl (racemic): > 1000 nM
- CS(=O)(=O)CCNC(=O)c1ccc2c(c1)CC[C@H]1C2=NN(c2ccc(C#N)c(Cl)c2)[C@H]1c1ccc(F)cc1: 2 nM
- N#Cc1ccc(N2N=C3c4ccc(C(=O)O)cc4CC[C@@H]3[C@@H]2C2CCCC2)cc1O (racemic): > 500 nM
- N#Cc1ccc(N2N=C3c4ccc(C(=O)O)cc4CCC3C2C2CCNCC2)cc1Cl (racemic) [Example 38, trifluoroacetate]: > 1000 nM
- CN(C)Cc1cc(N2N=C3c4ccc(C(=O)O)cc4CCC3C2C2CCCC2)ccc1C#N (racemic) [Example 29, trifluoroacetate]: > 1000 nM
- N#Cc1ccc(N2N=C3c4ccc(C(=O)O)cc4OC[C@H]3[C@H]2c2ccc(F)cc2)cc1Cl: 3510 nM
- N#Cc1ccc(N2N=C3c4ccc(C(=O)O)cc4OCC3C2C2CCCC2)cc1C(F)(F)F (racemic) [Example 69]: 130 nM
- N#Cc1ccc(N2N=C3c4ccc(C(=O)O)cc4CC[C@@H]3[C@@H]2c2ccoc2)cc1Cl: 18 nM
- N#Cc1ccc(N2N=C3c4ccc(O)cc4CCC3C2c2ccc(F)cc2)cc1 (racemic) [Example 90]: 1100 nM
- N#Cc1ccc(N2N=C3c4ccc(C(=O)O)cc4OCC3C2C2CCCC2)cc1Cl (racemic) [Example 67]: 146 nM
- Cc1cc(N2N=C3c4ccc(C(=O)O)cc4OC[C@@H]3[C@@H]2C2CCCC2)ccc1C#N (single isomer, unassigned): 26 nM

Origin of the recorded values: patent US7781428B2
